# assay.explanation: NCI Yeast Anticancer Drug Screen. Data for the bub3 strain (AID 167)
# condition.info: S. cerevisiae bub3 mutant strain, at 50.0 µM
About 79,000 compounds went through this panel and 15% of them were active in at least one assay; those are over-represented in the sample as a whole. The source made the active and inactive calls. Cut-off read from the data, not from the text of the source: active = growth inhibition above about 70%; inactive = the rest.
Give one outcome, nothing more. List: active, inactive

Known results for molecules:
{"molecule": "COc1cc(C(=O)C[n+]2ccccc2)ccc1O", "label": "active"}
{"molecule": "N=C(N)C=O", "label": "inactive"}
{"molecule": "C[C@H](C(=O)C12CC3CC(CC(C3)C1)C2)[C@H](O)c1ccccc1", "label": "inactive"}
{"molecule": "CC(C)C(NCc1c(O)ccc2c(-c3ccccc3)cc(=O)oc12)C(=O)O (stereo unspecified)", "label": "inactive"}
{"molecule": "O=[N+]([O-])c1ccc2nc(-c3ccccc3[N+](=O)[O-])[nH]c2c1", "label": "inactive"}

Consider now this further molecule.
Recorded call for N#C/C(=C(/N)N1CCOCC1)N1CCOCC1 ? inactive

----------
# assay.explanation: NCI Yeast Anticancer Drug Screen. Data for the rad50 strain (AID 155);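 note: 0% = growth of vehicle-only cultures of the same strain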
# condition.info: S. cerevisiae rad50 strain growth inhibition; at 50.0 µM; hits give high values
Compounds without any hit were thinned out: in the full panel of roughly 79,000, 15% have a hit.
measured.quantity: growth inhibition (%)
Output spec: scalar in %, unitless text.

{"molecule": "N#CC1(Cl)CC2CC1C1N=NN(c3ccccc3)C21 (centres undefined)", "growth inhibition, %": -24.6}

For the molecule CCC(C)N1C(=O)c2ccccc2C1=O (centres undefined) , report growth inhibition. 33

For the molecule NNC(=O)c1ccccc1F , report growth inhibition. -19.6

For the molecule Cc1ccc(N2C(=O)ON(c3ccccc3)C2c2ccccc2)cc1 (centres undefined) , report growth inhibition. 3.6

For the molecule CCCc1c(N)nc(N)nc1N , report growth inhibition. 3.4

For the molecule O=C1C(C2CCCCC2)=C2OCC3COC2(O3)c2ccccc21 (centres undefined) , report growth inhibition. -8.75

For the molecule CCc1ccc2c(c1)C(=O)c1c(c(-c3ccccc3)c3ccccc3c1-c1ccccc1)C2=O , report growth inhibition. -5.95

For the molecule CC1C=CC(C(=O)Nc2ccc(Cl)c(Cl)c2)N1C (centres undefined) , report growth inhibition. 1

For the molecule CCOP(=O)(OCC)C1=C(P(=O)(OCC)OCC)C(F)(F)C1(F)F , report growth inhibition. -9.35

For the molecule COc1cc(CC2c3cccc(Oc4ccc(C)cc4)c3CCN2C)ccc1Oc1ccc(C)cc1 (centres undefined) , report growth inhibition. 98

----------
# assay.explanation: NCI Yeast Anticancer Drug Screen. Data for the bub3 strain (AID 167)
# condition.info: S. cerevisiae bub3 mutant strain, at 50.0 µM, hits give high values
About 79,000 compounds went through this panel and 15% of them were active in at least one assay; those are over-represented in the sample as a whole.
Reported values of growth inhibition for individual entries
Output spec: scalar in %, unitless text.

For the compound O=C1CC(N2CCOCC2)c2ccccc21 (stereo unspecified) , report growth inhibition. -14

For the compound NC(=O)c1cccc(NC=O)c1 , report growth inhibition. 4.45

For the compound O=C1CSC2=NC3=C(CSC/C3=C\c3ccccc3)C(c3ccccc3)N12 (stereo unspecified) , report growth inhibition. 21

For the compound COc1nc(NC2OC(COC(C)=O)C(OC(C)=O)C(OC(C)=O)C2OC(C)=O)c(-c2csc(N)n2)c(=O)n1C (stereo unspecified) , report growth inhibition. -11.3

For the compound CC(C)(C)N[P+](Cc1ccccc1)(NC(C)(C)C)c1ccccc1 , report growth inhibition. 3.65

For the compound CCOC(=O)C1C(=O)CC(O)(c2ccccc2)C(C(=O)OCC)C1c1ccc(OC)cc1 (stereo unspecified) , report growth inhibition. 6.95

For the compound CCCCCCCCCC(=O)N/N=C/c1cccs1 , report growth inhibition. 35.8

For the compound CCOC(=O)Cn1c(=O)n(C)c(=O)c2c1ncn2Cc1ccccc1 , report growth inhibition. 9.5

For the compound CCOC(=O)c1[nH]c2ccc(O)c3c2c1CCC3=O , report growth inhibition. 6.4

For the compound CCCCCCCCCCCCCCCCSC1=C(Cl)C(=O)C(OC)=C(OC)C1=O , report growth inhibition. 0.25

For the compound O=C(OCCSC(=S)N1CCCCC1)c1ccccc1 , report growth inhibition. 16.6
